Biological target: CYP1A2 (Homo sapiens)
Construct: 0.1 mg/mL protein human liver microsomes (BD Gentest); tissue BD Gentest; host or cells: human liver microsomes
Sequence (P05177 1-516): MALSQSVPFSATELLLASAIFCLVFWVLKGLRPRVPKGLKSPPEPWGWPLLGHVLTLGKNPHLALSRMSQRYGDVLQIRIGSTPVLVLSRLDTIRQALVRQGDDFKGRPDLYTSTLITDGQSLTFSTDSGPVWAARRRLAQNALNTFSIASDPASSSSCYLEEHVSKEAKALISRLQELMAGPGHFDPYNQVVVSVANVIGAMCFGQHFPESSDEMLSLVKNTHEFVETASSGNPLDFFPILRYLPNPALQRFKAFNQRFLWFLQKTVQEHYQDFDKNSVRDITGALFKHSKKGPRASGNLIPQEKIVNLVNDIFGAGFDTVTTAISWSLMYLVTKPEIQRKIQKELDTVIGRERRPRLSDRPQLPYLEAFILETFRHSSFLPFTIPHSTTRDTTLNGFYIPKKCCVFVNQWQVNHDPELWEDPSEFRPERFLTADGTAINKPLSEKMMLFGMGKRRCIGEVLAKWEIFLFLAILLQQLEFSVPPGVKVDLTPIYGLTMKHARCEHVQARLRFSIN
Assay: Cocktail assay for CYPs in human liver microsomes: CYP1A2 (phenacetin O-deethylation)
Format: biochemical
Conditions: human liver microsomes 0.1 mg/mL, 10 μM phenacetin, 10 min at 37° C., 6 concentrations up to 10 μM; read-out: IC50 (nM) CYP1A2
Readout kind: IC50

The cases that follow already have their IC50 on record.
Compound | IC50
CC(c1ccccc1-c1ccc(F)cc1)n1cncc1CN1CCC(O)C1 (stereo not shown) | > 10000 nM
C[C@H](c1ccc(C#N)cc1)n1cncc1CN1CCN(c2ccccc2)C(C(=O)N2CCCCC2)C1 (single isomer, unassigned) [Compound 45b] | > 10000 nM
Cc1cc(C(=O)N2CCN(Cc3cncn3[C@H](C)c3ccc(F)cc3)CC2c2ccccc2)no1 (stereo partly shown) | > 10000 nM

Query: Quick one: IC50 for C[C@H](c1ccc(F)cc1)n1cncc1CN1CCC(C#N)(c2ccccn2)CC1 ?
Response: > 10000 nM

Query: Any idea what its IC50 is? The compound is CC(C)C1(C#N)CCN(Cc2cncn2[C@H](C)c2ccc(F)cc2)CC1
Response: > 10000 nM

Query: Look up IC50: COCCN1CCN(Cc2cncn2C(C)c2ccccc2-c2ccc(F)cc2)CC1 (stereo not shown)
Response: > 10000 nM

Query: Fill blank: measured IC50 of the compound C[C@H](c1ccc(F)cc1)n1cncc1CN1CCC(C#N)(C2CCOCC2)CC1 is ____.
Response: > 10000 nM

Query: Field request: IC50 | item: C[C@H](c1ccc(F)cc1)n1cncc1CN1CCN(c2nc3ccccc3o2)CC1
Response: > 10000 nM
